experimental-system: norepinephrine transporter (NET) (Rattus norvegicus)
assay-protocol: [3H]norepinephrine (NE) uptake inhibition in rat brain synaptosomes
Assay type: biochemical
conditions-used: read-out: NET Uptake Emax
# maps each entry to its Emax
measured-property: Emax (%)

                                    compound  measured_property  value_observed
 0  Cl.Fc1ccc2c(NCC(c3ccccc3)c3ccccc3)nc(-c3ccc4nccn4c3)nc2c1 [SRI-31034]               Emax              63
 1  c1ccc(C(CNc2nc(-c3ccc4nccn4c3)nc3ccccc23)c2cccnc2)cc1 (centres unmarked) [SRI-30946]               Emax              75
 2  OC(CNc1nc(-c2ccc3[nH]ccc3c2)nc2ccccc12)(c1ccccc1)c1ccccc1 [SRI-29983]               Emax              73
 3  c1ccc(C(CNc2nc(-c3ccc4nccn4c3)nc3ccccc23)c2ccc[nH]2)cc1 (centres unmarked) [SRI-30826]               Emax              81
 4  c1ccc(C(CNc2nc(-c3cnc4nccn4c3)nc3ccccc23)c2ccncc2)cc1 (centres unmarked) [SRI-30810]               Emax              69
 5  Cc1cc2nccn2cc1-c1nc(NCC(c2ccccc2)c2ccncc2)c2ccccc2n1 (centres unmarked) [SRI-31142]               Emax              61
 6  c1ccc(C(CNc2nc(-c3ccc4nccn4c3)nc3ccccc23)c2ccccc2)cc1 [SRI-29574]               Emax              72
 7  Cc1cc2nccn2cc1-c1nc(NCC(c2ccccc2)c2ccc[nH]2)c2ccccc2n1 (centres unmarked) [SRI-31040]               Emax              70
 8  c1ccc(C(CNc2nc(-c3ccc4ncnn4c3)nc3ccccc23)c2ccccc2)cc1 [SRI-30522]               Emax              40
 9  CN(C)c1ccc(-c2nc(NCC(c3ccccc3)c3ccccc3)c3ccccc3n2)cc1 [Compound 51]               Emax              68
10  c1ccc(C(CNc2nc(-c3ccc4nccn4c3)nc3ccccc23)C2CCCCC2)cc1 (centres unmarked) [SRI-30513]               Emax              65
11  c1ccc(C(CCNc2nc(-c3cccnc3)nc3ccccc23)c2ccccc2)cc1 [SRI-29070]               Emax              64
12  CS(=O)(=O)Nc1ccc(-c2nc(NCC(O)(c3ccccc3)c3ccccc3)c3ccccc3n2)cc1 [Compound 4]               Emax              70
13  c1ccc(C(CNc2nc(-c3cnc4nccn4c3)nc3ccccc23)c2ccccc2)cc1 [SRI-29991]               Emax              69
14  c1ccc(C(CCNc2nc(-c3ccc4[nH]ccc4c3)nc3ccccc23)c2ccccc2)cc1 [SRI-29213]               Emax              77
15  CN(C)c1ncc(-c2nc(NCC(O)(c3ccccc3)c3ccccc3)c3ccccc3n2)cn1 [SRI-29982]               Emax              71
16  c1ccc(C(CNc2nc(-c3cccnc3)nc3ccccc23)c2ccccc2)cc1 [SRI-29072]               Emax              62

====

experimental-system: norepinephrine transporter (NET) (Rattus norvegicus, UniProt Q63380)
Sequence (Q63380 1-617): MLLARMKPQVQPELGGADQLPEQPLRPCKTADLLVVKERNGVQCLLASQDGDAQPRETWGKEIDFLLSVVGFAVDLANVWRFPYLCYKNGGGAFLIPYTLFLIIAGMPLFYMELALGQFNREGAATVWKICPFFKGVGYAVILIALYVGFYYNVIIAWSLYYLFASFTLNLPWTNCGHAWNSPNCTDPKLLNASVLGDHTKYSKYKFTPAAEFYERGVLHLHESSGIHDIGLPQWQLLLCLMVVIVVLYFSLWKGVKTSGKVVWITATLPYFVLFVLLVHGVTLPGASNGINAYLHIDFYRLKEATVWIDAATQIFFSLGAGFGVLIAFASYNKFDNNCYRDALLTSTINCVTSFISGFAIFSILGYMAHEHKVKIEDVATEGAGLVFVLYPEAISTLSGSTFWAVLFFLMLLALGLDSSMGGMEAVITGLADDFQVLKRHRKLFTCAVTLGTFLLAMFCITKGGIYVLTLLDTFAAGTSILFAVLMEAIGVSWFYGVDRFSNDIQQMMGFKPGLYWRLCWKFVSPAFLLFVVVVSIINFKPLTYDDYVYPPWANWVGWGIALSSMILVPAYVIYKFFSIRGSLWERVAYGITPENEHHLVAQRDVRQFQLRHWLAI
assay-protocol: [3H]norepinephrine (NE) uptake inhibition in rat brain synaptosomes
conditions-used: read-out: NE Uptake EC50; rat brain synaptosomes, 10 nM [3H]norepinephrine, mean ± SD
# maps each entry to its EC50
measured-property: EC50 (nM)

>>> df
                                   compound  measured_property  result_unit  value_observed
0  CS(=O)(=O)Nc1ccc(-c2nc(NCC(O)(c3ccccc3)c3ccccc3)c3ccccc3n2)cc1               EC50           nM             426
1  Cc1cc(NS(C)(=O)=O)ccc1-c1nc(NCC(c2ccccc2)c2ccncc2)c2ccccc2n1 (stereo not drawn)               EC50           nM              31
2  CS(=O)(=O)Nc1ccc(-c2nc(NCC(c3ccccc3)c3ccncc3)c3ccccc3n2)cc1 (stereo not drawn)               EC50           nM              44

====

# maps each entry to its Emax
experimental-system: serotonin transporter (SERT) (Rattus norvegicus (Rat), UniProt P31652)
Sequence (P31652 whole entry): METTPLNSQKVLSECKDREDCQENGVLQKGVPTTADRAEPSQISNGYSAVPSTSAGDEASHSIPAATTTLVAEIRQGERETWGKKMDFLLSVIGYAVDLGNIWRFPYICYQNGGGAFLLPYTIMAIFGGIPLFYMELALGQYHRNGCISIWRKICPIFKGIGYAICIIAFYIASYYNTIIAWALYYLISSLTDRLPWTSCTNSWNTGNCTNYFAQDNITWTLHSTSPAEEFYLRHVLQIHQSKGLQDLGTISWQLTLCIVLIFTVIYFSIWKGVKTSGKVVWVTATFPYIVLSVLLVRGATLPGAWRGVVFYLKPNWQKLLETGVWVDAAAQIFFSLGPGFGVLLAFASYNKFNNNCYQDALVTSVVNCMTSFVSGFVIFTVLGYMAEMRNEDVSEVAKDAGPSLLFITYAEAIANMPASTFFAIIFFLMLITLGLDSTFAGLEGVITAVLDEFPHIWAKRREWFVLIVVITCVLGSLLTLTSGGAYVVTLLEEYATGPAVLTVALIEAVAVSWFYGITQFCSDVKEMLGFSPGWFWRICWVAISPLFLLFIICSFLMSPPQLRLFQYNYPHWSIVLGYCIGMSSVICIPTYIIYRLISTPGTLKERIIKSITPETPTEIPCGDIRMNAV
assay-protocol: [3H]serotonin (5-HT) uptake inhibition in rat brain synaptosomes
Type: biochemical
conditions-used: mean ± S.D.; n = 3; read-out: SERT Uptake Emax
measured-property: Emax (%)

>>> print(df.to_string())
                                    compound                       experimental_system  value_observed
 0  CN(C)c1ccc(-c2nc(NCC(c3ccccc3)c3ccccc3)c3ccccc3n2)cc1 [Compound 51]  serotonin transporter (SERT) (Rattus norvegicus (Rat), UniProt P31652)              44
 1  Cn1cc2cc(-c3nc(NCC(c4ccccc4)c4ccccc4)c4ccccc4n3)ccc2n1 [SRI-29776]  serotonin transporter (SERT) (Rattus norvegicus (Rat), UniProt P31652)              61
 2  c1ccc(C(CNc2nc(-c3cnc4nccn4c3)nc3ccccc23)c2ccccn2)cc1 (centres unmarked) [SRI-30507]  serotonin transporter (SERT) (Rattus norvegicus (Rat), UniProt P31652)              54
 3  c1ccc(C(CNc2nc(-c3ccc4nccn4c3)nc3ccccc23)C2CCCCC2)cc1 (centres unmarked) [SRI-30513]  serotonin transporter (SERT) (Rattus norvegicus (Rat), UniProt P31652)              59
 4  Cc1cc2nccn2cc1-c1nc(NCC(c2ccccc2)c2ccccc2)c2ccccc2n1 [SRI-30827]  serotonin transporter (SERT) (Rattus norvegicus (Rat), UniProt P31652)              58
 5  CNc1ncc(-c2nc(NCC(c3ccccc3)c3ccccc3)c3ccccc3n2)cn1 [SRI-29554]  serotonin transporter (SERT) (Rattus norvegicus (Rat), UniProt P31652)              60
 6  CSc1ncc(-c2nc(NCC(c3ccccc3)c3ccccc3)c3ccccc3n2)cn1 [SRI-29338]  serotonin transporter (SERT) (Rattus norvegicus (Rat), UniProt P31652)              52
 7  c1ccc(C(CNc2nc(-c3cccnc3)nc3ccccc23)c2ccccc2)cc1 [SRI-29072]  serotonin transporter (SERT) (Rattus norvegicus (Rat), UniProt P31652)              56
 8  CN(C)c1ccc(-c2nc(NCC(c3ccccc3)c3ccccc3)c3ccccc3n2)cn1 [SRI-29779]  serotonin transporter (SERT) (Rattus norvegicus (Rat), UniProt P31652)              51
 9  Cc1cc(NS(C)(=O)=O)ccc1-c1nc(NCC(c2ccccc2)c2ccncc2)c2ccccc2n1 (centres unmarked) [Compound 29]  serotonin transporter (SERT) (Rattus norvegicus (Rat), UniProt P31652)              58
10  CN(C)c1ncc(-c2nc(NCC(c3ccccc3)c3ccccc3)c3ccccc3n2)cn1 [SRI-29153]  serotonin transporter (SERT) (Rattus norvegicus (Rat), UniProt P31652)              55

====

# maps each entry to its Emax
experimental-system: dopamine transporter (DAT) (Rattus norvegicus (Rat), UniProt P23977)
Sequence (P23977 whole entry): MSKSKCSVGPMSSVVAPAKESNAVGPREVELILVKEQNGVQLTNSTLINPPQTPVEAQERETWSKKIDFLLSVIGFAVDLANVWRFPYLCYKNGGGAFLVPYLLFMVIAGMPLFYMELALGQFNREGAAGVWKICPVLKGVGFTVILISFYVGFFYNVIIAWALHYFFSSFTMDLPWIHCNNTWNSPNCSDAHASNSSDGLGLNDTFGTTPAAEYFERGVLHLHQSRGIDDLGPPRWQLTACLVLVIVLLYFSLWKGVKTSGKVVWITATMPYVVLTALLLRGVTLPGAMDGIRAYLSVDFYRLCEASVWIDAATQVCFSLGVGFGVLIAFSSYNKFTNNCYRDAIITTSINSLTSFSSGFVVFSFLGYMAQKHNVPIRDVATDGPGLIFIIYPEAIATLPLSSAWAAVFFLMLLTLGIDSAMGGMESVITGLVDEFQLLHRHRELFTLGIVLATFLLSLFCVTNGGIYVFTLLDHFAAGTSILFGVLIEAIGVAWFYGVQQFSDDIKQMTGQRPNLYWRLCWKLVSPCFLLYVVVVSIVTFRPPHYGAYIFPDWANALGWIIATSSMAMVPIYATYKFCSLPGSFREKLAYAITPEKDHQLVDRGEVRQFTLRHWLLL
assay-protocol: [3H]dopamine (DA) uptake inhibition in rat brain (caudate) synaptosomes
Format: biochemical
conditions-used: values in Table 9; read-out: Emax for DAT Uptake Inhibition
measured-property: Emax

>>> print(df.to_string())
                                   molecule  value_observed
0  CN(C)c1ccc(-c2nc(NCC(c3ccccc3)c3ccccc3)c3ccccc3n2)cn1 [SRI-29779]             63%
1  c1ccc(C(CNc2nc(-c3ccc4nccn4c3)nc3ccccc23)c2ccc[nH]2)cc1 (stereo not drawn) [SRI-30826]             64%
2  CS(=O)(=O)Nc1ccc(-c2nc(NCC(c3ccccc3)c3ccccc3)c3ccccc3n2)cc1 [Compound 50]             70%
3  c1ccc(C(CNc2nc(-c3cccnc3)nc3ccccc23)c2ccccc2)cc1 [SRI-29072]             71%
4  c1ccc(C(CCNc2nc(-c3ccc4[nH]ccc4c3)nc3ccccc23)c2ccccc2)cc1 [SRI-29213]             81%
5  Cc1cc2nccn2cc1-c1nc(NCC(c2ccccc2)c2ccncc2)c2ccccc2n1 (stereo not drawn) [SRI-31142]             72%
